method notes: Aqueous solubility of compound in PBS
Format: physicochemical
assay endpoint: solubility (µM)
Express your answer in µM, writing the number without its unit.

q: Requested read-out: solubility. Entry: O=C(Nc1cc(Cl)cc(Cl)c1)Nc1nc2ccc([N+](=O)[O-])cc2s1
a: 1.9

---

method notes: Stability in mouse plasma assessed as compound remaining measured after 120 mins
Assay type: ADME, cell-free
measurement context: read-out: Stability
assay endpoint: remaining at 2 h (%)
Use % as the unit, but write only the number.

q: // query remaining at 2 h value for entry O=C(Nc1cc(Cl)cc(Cl)c1)Nc1nc2ccc([N+](=O)[O-])cc2s1
a: 101

---

method notes: Protein binding in mouse plasma
Type: ADME, cell-free
measurement context: read-out: PPB (converted)
assay endpoint: fraction unbound

q: What value of fraction unbound has been reported for the following compound? O=C(Nc1cc(Cl)cc(Cl)c1)Nc1nc2ccc([N+](=O)[O-])cc2s1
a: 0.004

---

method notes: Stability in mouse hepatocytes assessed as intrinsic clearance measured per 10^6 cells
Format: ADME, cell-based, Hepatocyte
measurement context: read-out: CLH
assay endpoint: hepatocyte CLint (µL/min/1e6 cells)
// units = µL/min/1e6 cells; emit number, no label

q: Look up hepatocyte CLint for this compound: O=C(Nc1cc(Cl)cc(Cl)c1)Nc1nc2ccc([N+](=O)[O-])cc2s1
a: 65.8

---

Recorded measurements of pIC50, one per entry
method notes: Antiproliferative activity against human Sunitinib-resistant 786-R cells incubated for 48 hrs by XTT assay
Format: functional, cell-based
Note: pIC50 values are expressed as the negative base-10 logarithm of concentration in M.

A selection of reference data follows.
mol_smiles=Cc1ccccc1NC(=O)Nc1nc2ccc([N+](=O)[O-])cc2s1 assay_endpoint=pIC50 reported_result=5.22
mol_smiles=O=C(Nc1cccc(Cl)c1)Nc1nc2ccc(-c3cccc4ccccc34)cc2s1 assay_endpoint=pIC50 reported_result=5.00

q: I'd like to know its pIC50. The compound in question is O=C(Nc1cccc(Cl)c1)Nc1nc2ccc([N+](=O)[O-])cc2s1
a: 5.60

q: And the next one, Cc1ccc(NC(=O)Nc2nc3ccc([N+](=O)[O-])cc3o2)cc1 ?
a: 4.60

q: # repeat for O=C(Nc1ccc(Br)cc1)Nc1nc2ccc([N+](=O)[O-])cc2s1
a: 5.30

---

method notes: Half-life in NOD SCID mouse at 100 mg/kg, po
Assay type: ADME, organism-based
measurement context: in vivo
assay endpoint: half-life (min)
Give the number; min is assumed, so skip it.

q: What half-life value was documented for this compound, O=C(Nc1cc(Cl)cc(Cl)c1)Nc1nc2ccc([N+](=O)[O-])cc2s1 ?
a: 132

---

method notes: Stability in mouse microsomes assessed as compound remaining measured after 1 hrs
Assay type: ADME, Microsome
measurement context: read-out: Stability
assay endpoint: remaining at 1 h
Form entry: enter the amount, then its unit.

q: What does the data say about its remaining at 1 h? Entry: O=C(Nc1cc(Cl)cc(Cl)c1)Nc1nc2ccc([N+](=O)[O-])cc2s1
a: 76%

---

method notes: Stability in human hepatocytes assessed as intrinsic clearance measured per 10^6 cells
Assay type: ADME, cell-based, Hepatocyte
measurement context: read-out: CLH
assay endpoint: hepatocyte CLint (µL/min/1e6 cells)
// note: answer is a bare numeric in µL/min/1e6 cells

q: Please look up its hepatocyte CLint: O=C(Nc1cc(Cl)cc(Cl)c1)Nc1nc2ccc([N+](=O)[O-])cc2s1
a: 35.9
